# Tested System: Fuc(a1-2)[GalNAc(a1-3)]Gal
# Protocol Text: glycan array binding signal (z-score within array); higher = stronger binding
# Recorded Conditions: glycan notation: IUPAC condensed, linker removed
This is one part of a sample in which the strongest signals are shown more often than they occur.
Assign met whenever glycan array binding signal (z-score) does not fall below -0.2; assign not met whenever it does.

Example cases with answers are listed next.
INSERT INTO measurements (binder, answer_label) VALUES
  ('MFG-E8 (Homo sapiens), Q08431 (protein) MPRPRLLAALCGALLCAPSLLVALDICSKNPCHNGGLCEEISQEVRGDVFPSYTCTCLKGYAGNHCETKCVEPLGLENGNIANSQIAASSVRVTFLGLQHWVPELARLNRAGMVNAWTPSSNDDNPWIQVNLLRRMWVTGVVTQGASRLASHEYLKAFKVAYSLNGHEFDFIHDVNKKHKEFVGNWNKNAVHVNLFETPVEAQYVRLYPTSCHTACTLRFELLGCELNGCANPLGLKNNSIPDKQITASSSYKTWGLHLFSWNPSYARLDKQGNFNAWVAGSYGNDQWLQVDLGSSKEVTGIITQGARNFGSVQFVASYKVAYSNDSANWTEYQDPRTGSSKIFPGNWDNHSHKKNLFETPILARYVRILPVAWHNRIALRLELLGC', 'not met'),
  ('Gal 4 (Canis lupus) (protein) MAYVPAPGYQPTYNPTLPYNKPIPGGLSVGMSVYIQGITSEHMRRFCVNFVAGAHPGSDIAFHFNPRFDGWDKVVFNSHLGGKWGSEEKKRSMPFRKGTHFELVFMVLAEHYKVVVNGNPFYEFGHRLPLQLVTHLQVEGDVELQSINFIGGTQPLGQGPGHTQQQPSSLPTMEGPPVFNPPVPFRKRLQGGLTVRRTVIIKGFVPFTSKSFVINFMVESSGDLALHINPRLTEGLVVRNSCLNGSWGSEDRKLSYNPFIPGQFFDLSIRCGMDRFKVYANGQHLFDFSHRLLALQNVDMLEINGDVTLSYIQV', 'met'),
  ('SSL (Salmo salar) (protein) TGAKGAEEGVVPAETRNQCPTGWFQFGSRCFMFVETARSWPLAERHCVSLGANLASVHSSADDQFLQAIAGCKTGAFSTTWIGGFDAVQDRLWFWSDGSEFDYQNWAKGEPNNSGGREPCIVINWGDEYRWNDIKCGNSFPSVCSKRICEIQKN', 'met'),
  ('HHA (Hippeastrum hybrid) (protein) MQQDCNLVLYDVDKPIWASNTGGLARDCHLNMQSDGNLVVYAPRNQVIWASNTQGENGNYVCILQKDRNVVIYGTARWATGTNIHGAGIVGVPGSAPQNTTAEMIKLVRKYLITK', 'not met');

Could you tell me if the measured glycan array binding signal (z-score) of AT3G09350(27) (Arabidopsis thaliana), Q84J81 (protein) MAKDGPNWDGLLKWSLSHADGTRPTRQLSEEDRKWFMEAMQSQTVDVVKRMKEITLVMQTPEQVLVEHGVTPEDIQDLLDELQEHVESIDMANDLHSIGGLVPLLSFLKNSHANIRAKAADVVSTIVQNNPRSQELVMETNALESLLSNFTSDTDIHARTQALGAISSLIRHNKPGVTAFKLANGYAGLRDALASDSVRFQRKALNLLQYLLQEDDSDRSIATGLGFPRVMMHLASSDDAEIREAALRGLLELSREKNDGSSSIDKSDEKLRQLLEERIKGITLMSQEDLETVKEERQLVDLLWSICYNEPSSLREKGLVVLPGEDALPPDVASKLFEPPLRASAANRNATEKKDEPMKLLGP reaches -0.2 or more?
not met
